- Target or system: T1, Human IL-18Rα ectodomain (amino acids 19-329), biotinylated (human, UniProt Q13478 19-329, biotin on the AviTag (BirA ligase))
- T1 construct: range 19-329; Secreted from insect cells (gp67 signal peptide removed); also called hIL-18Rα; hIL18Rα
- T1 sequence: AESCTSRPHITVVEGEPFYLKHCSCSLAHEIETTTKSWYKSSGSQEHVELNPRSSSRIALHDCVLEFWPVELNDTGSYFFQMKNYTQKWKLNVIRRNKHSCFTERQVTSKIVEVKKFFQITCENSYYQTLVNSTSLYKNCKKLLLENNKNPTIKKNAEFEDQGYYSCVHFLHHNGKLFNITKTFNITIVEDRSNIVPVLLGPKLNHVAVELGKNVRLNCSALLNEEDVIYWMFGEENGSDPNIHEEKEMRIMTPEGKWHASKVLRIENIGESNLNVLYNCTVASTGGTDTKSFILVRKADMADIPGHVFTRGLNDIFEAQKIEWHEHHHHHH
- Measurement notes: SPR (Biacore T100), hIL-18Rα as surface ligand, 1:1 Langmuir
Parameter: koff (s⁻¹)
Give just the numeric value; s⁻¹ need not be written.

Record SEQ ID NO: 89 (second generation human DR-IL-18 variant 6-12) (ligand, Engineered variant; recombinant soluble analyte in SPR and cell assays) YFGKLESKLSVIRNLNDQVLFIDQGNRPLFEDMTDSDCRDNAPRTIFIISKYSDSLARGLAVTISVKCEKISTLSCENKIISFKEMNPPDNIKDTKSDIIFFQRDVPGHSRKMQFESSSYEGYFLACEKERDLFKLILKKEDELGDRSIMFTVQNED . Reported koff: 0.00091

Record SEQ ID NO: 91 (second generation human DR-IL-18 variant 6-29) (ligand, Engineered variant; recombinant soluble analyte in SPR and cell assays) YFGKLESKLSVIRNLNDQVLFIDQGNRPLFEDMTDSDCRDNAPRTIFIISKYSDSRARGLAVTISVKCEKISTLSCENKIISFKEMNPPDNIKDTKSDIIFFQRNVPGHGRKMQFESSSYEGYFLACEKERDLFKLILKKEDELGDRSIMFTVQNED . Reported koff: 0.00119

Record SEQ ID NO: 87 (second generation human DR-IL-18 variant 6-31) (ligand, Engineered variant; recombinant soluble analyte in SPR and cell assays) YFGKLESKLSVIRNLNDQVLFIDQGNRPLFEDMTDSDCRDNAPRTIFIISKYGDSGARGLAVTISVKCEKISTLSCENKIISFKEMNPPDNIKDTKSDIIFFERDVPGHSGKVQFESSSYEGYFLACEKERDLFKLILKKEDELGDRSIMFTVQNED . Reported koff: 0.00332

Record SEQ ID NO: 90 (second generation human DR-IL-18 variant 6-27) (ligand, Engineered variant; recombinant soluble analyte in SPR and cell assays) YFGKLESKLSVIRNLNDQVLFIDQGNRPLFEDMTDSDCRDNAPRTIFIISKYSDSRARGLAVTISVKCEKISTLSCENKIISFKEMNPPDNIKDTKSDIIFFARSVPGHGRKTQFESSSYEGYFLACEKERDLFKLILKKEDELGDRSIMFTVQNED . Reported koff: 0.00243
